Where do these numbers come from? They come from patent EP2407164A1.

Test system: MCF-7
Test: MTT cytotoxicity assay, complexes 1-6
Format: cell-based, Human
Details: MCF-7 breast cancer, 24 hr exposure, mean of three independent experiments +/- standard error
Listing: IC50 of selected compounds
Value expressed in µM; do not type the unit.

{"compound": "O.O.O.O.O.O=C([O-])c1cccc(C(=O)[O-])c1.[Cu+2].c1cnc2c(c1)ccc1cccnc12.c1cnc2c(c1)ccc1cccnc12 [Complex 5, [Cu(isoph)(phen)2]5H2O]", "IC50, µM": 41.2}

Now take the following compound into account.
// query IC50 value for entry N.N.[Cl][Pt][Cl] [Cisplatin, reference compound]
90.8

###

# IC50 annotations
Test system: SK-OV-3
Assay: MTT cytotoxicity assay, complexes 1-6
Assay type: cell-based, Human
Conditions: Homo sapiens, SK-OV-3 ovarian cancer, 24 hr exposure, mean of three independent experiments +/- standard error
Answer in µM, number only, no unit symbol.

{"compound": "c1cnc2c(c1)ccc1cccnc12", "unit.tag": "µM", "IC50": 286}

Which IC50 is listed for O=C1c2c(O)ccc(O)c2C(=O)c2c(NCCNCCO)ccc(NCCNCCO)c21 [mitoxantrone, reference compound] ?
54.5

###

Tested on: SK-OV-3
Test: MTT cytotoxicity assay, complexes 1-6
Assay type: cell-based, Human
Settings: Homo sapiens, SK-OV-3 ovarian cancer, 24 hr exposure, mean of three independent experiments +/- standard error
Below: a set of entries, each annotated with reported IC50.

{"compound": "O=C(O)c1ccc(C(=O)O)cc1 [terphH2, terephthalic acid, reference compound]", "IC50": "> 500 µM"}
{"compound": "O=C(O)c1ccccc1C(=O)O [phH2, phthalic acid, reference compound]", "IC50": "> 500 µM"}

So what's the measured IC50 for this one? O=C(O)c1cccc(C(=O)O)c1 [isophH2, isophthalic acid, reference compound]
> 500 µM
